Measured IC50, listed per entry.
# target_desc: PCSK9 (Homo sapiens (Human), UniProt Q8NBP7)
# Sequence (Q8NBP7 153-692): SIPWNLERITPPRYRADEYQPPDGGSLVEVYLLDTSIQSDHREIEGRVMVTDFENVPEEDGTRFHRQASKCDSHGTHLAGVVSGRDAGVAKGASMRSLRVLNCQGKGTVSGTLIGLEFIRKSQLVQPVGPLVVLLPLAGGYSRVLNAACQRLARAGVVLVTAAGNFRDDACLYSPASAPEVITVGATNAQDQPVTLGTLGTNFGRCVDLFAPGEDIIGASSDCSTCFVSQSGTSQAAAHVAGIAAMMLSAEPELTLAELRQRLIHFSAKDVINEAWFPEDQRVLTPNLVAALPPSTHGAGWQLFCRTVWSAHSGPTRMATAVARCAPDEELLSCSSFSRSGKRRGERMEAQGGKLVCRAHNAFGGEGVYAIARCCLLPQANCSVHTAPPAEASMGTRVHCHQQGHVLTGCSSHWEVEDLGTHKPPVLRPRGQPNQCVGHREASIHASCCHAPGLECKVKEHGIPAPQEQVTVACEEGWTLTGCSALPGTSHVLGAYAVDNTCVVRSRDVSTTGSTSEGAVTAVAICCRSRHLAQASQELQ
# test_details: PCSK9 Alexa FRET Standard assay (displacement of AlexaFluor647 tagged cyclic peptide Reagent A)
# Assay type: binding
# study_conditions: PCSK9 Alexa FRET Standard assay, 0.5 nM PCSK9, 20 nM AF cyclic peptide Reagent A; read-out: IC50
# Method: A solution containing 1 nM biotinylated PCSK9+2.5 nM Lance Streptavidin Europium (Strep-Eu) was made in 50 mM HEPES pH 7.4, 0.15 M NaCl, 5 mM CaCl2), 0.01% BSA, and 0.01% Surfactant P20. […] The reaction was incubated at room temperature for at least two hours prior to fluorescence measurements using an Envision Multilabel Reader. IC50 values were determined by fitting data to a sigmoidal dose-response curve using nonlinear regression. […]
Starred links: 1 amine or outer side, 2 acyl side, 3 side chain; linkers in the order of their positions; H or OH if unused. Positions of bridges follow the written chain, without caps; N, C: chain ends. Non-standard residues stand in square brackets, D forms with d. Residues, ends and D or L forms follow the SMILES beside them. *: point of attachment. Phe(3-CH2NH2) = O=C([C@H](Cc1cccc(CN[*:3])c1)N[*:1])[*:2]; X1 = O=C1CC[C@@H](C(=O)[*:1])N1CCCSCc1cccc(C[*:2])c1; Ala(imidazol-2-yl) = N[C@@H](Cc1ncc[nH]1)C(=O)O; Trp(5-F) = N[C@@H](Cc1c[nH]c2ccc(F)cc12)C(=O)O; Pro(cis-4-F) = O=C(O)[C@@H]1C[C@H](F)CN1; X4 = O=C(CCSCc1cccc(CSCCN[*:1])c1)[*:2]; AEF = NCCOc1ccc(C[C@H](N)C(=O)O)cc1; Glutaryl = O=C(CCCC(=O)[*:2])[*:1]; cisHyp = O=C(O)[C@@H]1C[C@H](O)CN1; αMeP = C[C@@]1(C(=O)O)CCCN1; Propionyl = CCC(=O)*

Some compounds with recorded IC50:
[[record]]
compound = "CCC(=O)N[C@H]1CC(=O)NCCOc2ccc(cc2)C[C@@H](C(N)=O)NC(=O)[C@]2(C)CCCN2C(=O)[C@H](Cc2ccc(OC)cc2)NC(=O)[C@H]([C@@H](C)O)NC(=O)[C@@H]2C[C@H](F)CN2C(=O)[C@H](Cc2c[nH]c3ccc(F)cc23)NC(=O)[C@H](Cc2c[nH]c3ccc(F)cc23)NC(=O)[C@@H](C)NC(=O)[C@H](CCCCN)NC1=O [Compound 118] (Propionyl-DK[dA][Trp(5-F)][Trp(5-F)][Pro(cis-4-F)]TY(Me)[αMeP][AEF]-NH2; lactam 1-10)"
target_desc = "PCSK9 (Homo sapiens (Human), UniProt Q8NBP7)"
recorded_value = "21 to 50 µM"

[[record]]
compound = "COc1ccc(C[C@@H]2NC(=O)[C@H]([C@H](C)O)NC(=O)[C@@H]3C[C@H](F)CN3C(=O)[C@H](Cc3c[nH]c4ccc(F)cc34)NC(=O)[C@H](Cc3c[nH]c4ccc(F)cc34)NC(=O)[C@@H](C)NC(=O)[C@H](CCCCN)NC(=O)[C@H](NC(C)=O)CCc3cn(nn3)-c3ccc(cc3)C[C@@H](C(N)=O)NC(=O)[C@]3(C)CCCN3C2=O)cc1"
target_desc = "PCSK9 (Homo sapiens (Human), UniProt Q8NBP7)"
recorded_value = "0.00011 to 0.1 µM"

[[record]]
compound = "C[C@@]12CCCN1C(=O)[C@H](Cc1ccc(O)cc1)NC(=O)[C@H](Cc1c[nH]cn1)NC(=O)[C@H](CC(=O)O)NC(=O)[C@H](Cc1c[nH]c3ccc(F)cc13)NC(=O)[C@H](Cc1c[nH]c3ccc(F)cc13)NC(=O)CNC(=O)[C@@H]1CCC(=O)N1CCCSCc1cccc(c1)CSC[C@@H](C(N)=O)NC2=O [Compound 482] (G[Trp(5-F)][Trp(5-F)]DHY[αMeP]C-NH2; linker N-8 via X1)"
target_desc = "PCSK9 (Homo sapiens (Human), UniProt Q8NBP7)"
recorded_value = "0.00011 to 0.1 µM"


Which IC50 value is on record for COc1ccc(C[C@@H]2NC(=O)[C@@H]([C@H](C)O)NC(=O)[C@@H]3C[C@H](O)CN3C(=O)[C@H](Cc3c[nH]c4ccc(F)cc34)NC(=O)[C@H](Cc3c[nH]c4ccc(F)cc34)NC(=O)[C@@H](C)NC(=O)[C@H](CCCCN)NC(=O)CCSCc3cccc(c3)CSCCNC(=O)[C@]3(C)CCCN3C2=O)cc1 [Compound 085] (cyclo(K[dA][Trp(5-F)][Trp(5-F)][cisHyp][dT]Y(Me)[αMeP][X4])) ?
21 to 50 µM

Which IC50 value is on record for NC(=O)[C@@H]1Cc2cccc(c2)CNC(=O)CCCC(=O)NCC(=O)N[C@@H](Cc2c[nH]c3ccc(F)cc23)C(=O)N[C@@H](Cc2c[nH]c3ccc(F)cc23)C(=O)N[C@@H](CC(=O)O)C(=O)N[C@@H](Cc2ncc[nH]2)C(=O)N[C@@H](Cc2ccc(O)cc2)C(=O)N1 [Compound 458] (G[Trp(5-F)][Trp(5-F)]D[Ala(imidazol-2-yl)]Y[Phe(3-CH2NH2)]-NH2; linker N-7 via Glutaryl) ?
21 to 50 µM

----------
# target_desc: human PCSK9 / human LDLR EGFa domain interaction (Homo sapiens (Human), UniProt Q8NBP7)
# Sequence (Q8NBP7 31-152 partner, one chain of several): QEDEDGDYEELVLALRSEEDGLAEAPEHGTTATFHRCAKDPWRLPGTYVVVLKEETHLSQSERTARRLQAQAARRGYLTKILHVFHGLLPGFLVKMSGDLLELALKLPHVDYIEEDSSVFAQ
# test_details: TR-FRET assay of inhibition of the PCSK9-LDLR protein-protein interaction
# Type: binding
# study_conditions: TR-FRET, 20 nM human PCSK9, 20 nM human LDLR EGFa domain, 2 hours room temperature; read-out: IC50
Starred links: 1 amine or outer side, 2 acyl side, 3 side chain; linkers in the order of their positions; H or OH if unused. Positions of bridges follow the written chain, without caps; N, C: chain ends. Non-standard residues stand in square brackets, D forms with d. Residues, ends and D or L forms follow the SMILES beside them. ξ: configuration not given here. Phe(3-CH2NH2) = O=C([C@H](Cc1cccc(CN[*:3])c1)N[*:1])[*:2]; Trp(5-F) = N[C@@H](Cc1c[nH]c2ccc(F)cc12)C(=O)O; X4 = O=C(CCSCc1cccc(CSCCN[*:1])c1)[*:2]; mXylylene = c1cc(C[*:1])cc(C[*:2])c1; X41 = O=C(Cc1ccc(N[*:1])cc1)[*:2]; hPhe = N[C@@H](CCc1ccccc1)C(=O)O; NMeD = CN[C@@H](CC(=O)O)C(=O)O; αMeP = C[C@@]1(C(=O)O)CCCN1; ξD = NC(CC(=O)O)C(=O)O; Mpa = O=C(O)CCS
Measured IC50, listed per entry.

Some compounds with recorded IC50:
[[record]]
compound = "NCCCC[C@@H]1NC(=O)CCSCc2cccc(c2)CSC[C@@H](C(N)=O)NC(=O)[C@@H]2CCCN2C(=O)[C@H](Cc2ccc(O)cc2)NC(=O)[C@H](Cc2c[nH]cn2)NC(=O)[C@H](CC(=O)O)NC(=O)[C@H](CCc2ccccc2)NC(=O)[C@H](Cc2c[nH]c3ccc(F)cc23)NC(=O)CNC1=O [Compound 244] ([Mpa]KG[Trp(5-F)][hPhe]DHYPC-NH2; linker 1-10 via mXylylene)"
recorded_value = "100 to 1000 nM"

[[record]]
compound = "COc1ccc(C[C@@H]2NC(=O)[C@H]([C@@H](C)OC)NC(=O)[C@H](CCC(=O)O)NC(=O)[C@H](Cc3c[nH]c4ccc(F)cc34)NC(=O)[C@H](Cc3cccc(CN)c3)NC(=O)[C@@H](C)NC(=O)[C@H](C)NC(=O)CCSCc3cccc(c3)CSCCNC(=O)[C@]3(C)CCCN3C2=O)cc1 [Compound 343] (cyclo(A[dA][Phe(3-CH2NH2)][Trp(5-F)]ET(Me)Y(Me)[αMeP][X4]))"
recorded_value = "0.1 to 100 nM"

[[record]]
compound = "C[C@H]1NC(=O)[C@H](Cc2c[nH]c3ccc(F)cc23)NC(=O)[C@H](Cc2c[nH]c3ccc(F)cc23)NC(=O)CNC(=O)[C@H](CCCCN)NC(=O)CCSCc2cccc(c2)CSC[C@@H](C(N)=O)NC(=O)[C@]2(C)CCCN2C(=O)[C@H](Cc2ccc(O)cc2)NC(=O)[C@H](Cc2cnc[nH]2)NC1=O [Compound 032] ([Mpa]KG[Trp(5-F)][Trp(5-F)][dA]HY[αMeP]C-NH2; linker 1-10 via mXylylene)"
recorded_value = "100 to 1000 nM"

[[record]]
compound = "CN1C(=O)[C@H](Cc2c[nH]c3ccc(F)cc23)NC(=O)[C@H](Cc2c[nH]c3ccc(F)cc23)NC(=O)CNC(=O)[C@H](CCCCN)NC(=O)CCSCc2cccc(c2)CSC[C@@H](C(N)=O)NC(=O)[C@@H]2CCCN2C(=O)[C@H](Cc2ccc(O)cc2)NC(=O)[C@H](Cc2cnc[nH]2)NC(=O)[C@@H]1CC(=O)O [Compound 171] ([Mpa]KG[Trp(5-F)][Trp(5-F)][NMeD]HYPC-NH2; linker 1-10 via mXylylene)"
recorded_value = "0.1 to 100 nM"


For the next question, use this compound.
Which IC50 value is on record for COc1ccc(C[C@@H]2NC(=O)[C@H](Cc3cnc[nH]3)NC(=O)[C@H](CC(=O)O)NC(=O)[C@H](Cc3c[nH]c4ccc(F)cc34)NC(=O)[C@H](Cc3c[nH]c4ccc(F)cc34)NC(=O)[C@@H](C)NC(=O)Cc3ccc(cc3)NC(=O)CC(C(=O)O)NC(=O)[C@]3(C)CCCN3C2=O)cc1 (some centres unmarked) [Compound 402] ([X41][dA][Trp(5-F)][Trp(5-F)]DHY(Me)[αMeP][ξD]-OH; lactam N-9) ?
1000 to 12100 nM
